Hello, the source for this data is patent US20250333467A1, in case you need it.

- TEST_SYSTEM: T1, rat RXFP1 (rat, UniProt Q6R6I6 1-758)
- T1 sequence (looked up): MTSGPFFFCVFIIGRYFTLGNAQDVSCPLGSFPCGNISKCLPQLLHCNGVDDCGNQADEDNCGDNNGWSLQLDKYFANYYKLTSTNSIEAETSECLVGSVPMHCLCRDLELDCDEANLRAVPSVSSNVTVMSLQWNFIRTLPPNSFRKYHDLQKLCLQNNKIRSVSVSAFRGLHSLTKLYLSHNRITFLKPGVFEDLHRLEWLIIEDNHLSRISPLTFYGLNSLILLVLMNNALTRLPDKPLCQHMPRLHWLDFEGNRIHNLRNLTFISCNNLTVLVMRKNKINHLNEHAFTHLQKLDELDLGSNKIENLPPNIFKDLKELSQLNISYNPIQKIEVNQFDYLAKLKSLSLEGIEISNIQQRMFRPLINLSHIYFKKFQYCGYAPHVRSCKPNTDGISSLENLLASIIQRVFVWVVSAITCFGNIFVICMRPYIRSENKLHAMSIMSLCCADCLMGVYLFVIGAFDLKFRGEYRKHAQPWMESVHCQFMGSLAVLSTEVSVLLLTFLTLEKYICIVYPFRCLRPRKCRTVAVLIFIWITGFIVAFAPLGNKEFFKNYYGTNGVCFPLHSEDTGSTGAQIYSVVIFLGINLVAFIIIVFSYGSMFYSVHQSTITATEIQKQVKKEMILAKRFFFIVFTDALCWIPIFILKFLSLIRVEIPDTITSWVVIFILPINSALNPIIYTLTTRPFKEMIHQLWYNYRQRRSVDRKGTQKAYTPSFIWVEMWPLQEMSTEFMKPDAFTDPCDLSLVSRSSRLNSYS
- TEST_PROTOCOL: cell-based or functional assay
OUTCOME_MEASURE: Transient HEK293 rRXFP1 cAMP EC50 (nM)
Your answer is read as nM, so omit the unit and give the number.

Consider the following illustrative entries.
Prompt: Check the records and state Transient HEK293 rRXFP1 cAMP EC50 for SEQ ID NO: 95 (Fc fusion) DKTHTCPPCPAPEAAGGPSVFLFPPKPKDTLMISRTPEVTCVVVDVSHEDPEVKFNWYVDGVEVHNAKTKPREEQYNSTYRVVSVLTVLHQDWLNGKEYKCKVSNKALAAPIEKTISKAKGQPREPQVYTLPPSRDELTKNQVSLTCLVKGFYPSDIAVEWESNGQPENNYKTTPPVLDSDGSFFLYSKLTVDKSRWQQGNVFSCSVLHEALHSHYTQKSLSLSPGEGGSDSWQEEVIKLCGRELVRAQIAICGKSTASDAAGAQADAGARQLYSALANKCCHVGCTKRSLAQFC
Response: 13.5

Prompt: For the binder SEQ ID NO: 118 (Fc fusion) DKTHTCPPCPAPEAAGGPSVFLFPPKPKDTLMISRTPEVTCVVVDVSHEDPEVKFNWYVDGVEVHNAKTKPREEQYNSTYRVVSVLTVLHQDWLNGKEYKCKVSNKALAAPIEKTISKAKGQPREPQVYTLPPSRDELTKNQVSLTCLVKGFYPSDIAVEWESNGQPENNYKTTPPVLDSDGSFFLYSKLTVDKSRWQQGNVFSCSVLHEALHSHYTQKSLSLSPGEGGSDSWQEEVIKLCGRELVRAQIAICGQSTASDAAGAQAQAGARQLYSALANKCCHVGCTKQSLAQFC , report Transient HEK293 rRXFP1 cAMP EC50.
Response: 20.3

Prompt: Identify measured Transient HEK293 rRXFP1 cAMP EC50 associated with SEQ ID NO: 104 (Fc fusion) DKTHTCPPCPAPEAAGGPSVFLFPPKPKDTLMISRTPEVTCVVVDVSHEDPEVKFNWYVDGVEVHNAKTKPREEQYNSTYRVVSVLTVLHQDWLNGKEYKCKVSNKALAAPIEKTISKAKGQPREPQVYTLPPSRDELTKNQVSLTCLVKGFYPSDIAVEWESNGQPENNYKTTPPVLDSDGSFFLYSKLTVDKSRWQQGNVFSCSVLHEALHSHYTQKSLSLSPGEGGSDSWQEEVIKLCGRELVRAQIAICGQSTASDAAGAQAQAGARQLYSALANKCCHVGCTKRSLAQFC
Response: 6.74

Prompt: Quick one: give measured Transient HEK293 rRXFP1 cAMP EC50 for SEQ ID NO: 93 (Fc fusion) DKTHTCPPCPAPEAAGGPSVFLFPPKPKDTLMISRTPEVTCVVVDVSHEDPEVKFNWYVDGVEVHNAKTKPREEQYNSTYRVVSVLTVLHQDWLNGKEYKCKVSNKALAAPIEKTISKAKGQPREPQVYTLPPSRDELTKNQVSLTCLVKGFYPSDIAVEWESNGQPENNYKTTPPVLDSDGSFFLYSKLTVDKSRWQQGNVFSCSVLHEALHSHYTQKSLSLSPGEGGSDSWQEEVIKLCGRELVRAQIAICGKSTASDAAGADADAGARQLYSALANKCCHVGCTKRSLAQFC
Response: 21.3

Prompt: Note down Transient HEK293 rRXFP1 cAMP EC50 recorded for Wild-type human relaxin-2 (ligand) chain 1: DSWMEEVIKLCGRELVRAQIAICGMSTWS chain 2: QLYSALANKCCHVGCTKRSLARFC
Response: 0.122

Prompt: Give the reported Transient HEK293 rRXFP1 cAMP EC50 for this binder. SEQ ID NO: 111 (Fc fusion) DKTHTCPPCPAPEAAGGPSVFLFPPKPKDTLMISRTPEVTCVVVDVSHEDPEVKFNWYVDGVEVHNAKTKPREEQYNSTYRVVSVLTVLHQDWLNGKEYKCKVSNKALAAPIEKTISKAKGQPREPQVYTLPPSRDELTKNQVSLTCLVKGFYPSDIAVEWESNGQPENNYKTTPPVLDSDGSFFLYSKLTVDKSRWQQGNVFSCSVLHEALHSHYTQKSLSLSPGEGGSDSWQEEVIKLCGRELVRAQIAICGKSTASDAAGAQAQAGARQLYSALANKCCHVGCTKQSLAQFC
Response: 6.74

# next binder below
Prompt: Respond only with Transient HEK293 rRXFP1 cAMP EC50 recorded for SEQ ID NO: 496 (Fc fusion) DKTHTCPPCPAPEAAGGPSVFLFPPKPKDTLMISRTPEVTCVVVDVSHEDPEVKFNWYVDGVEVHNAKTKPREEQYNSTYRVVSVLTVLHQDWLNGKEYKCKVSNKALAAPIEKTISKAKGQPREPQVYTLPPSRDELTKNQVSLTCLVKGFYPSDIAVEWESNGQPENNYKTTPPVLDSDGSFFLYSKLTVDKSRWQQGNVFSCSVLHEALHSHYTQKSLSLSPGKGGSDSWKEEVIKLCGRELVRAQIAICGKSTASDAAGANANAGARQLYSALANKCCHVGCTKRSLARFC
Response: 1.15
